- protocol details: DASbox small-scale fermentation, degradation by HPLC and LC/MS
- Format: physicochemical
- experimental setup: DASbox fed batch fermentation runs
Ends that are not written are not given here.
measured property: degradation detected via HPLC and LC/MS

seq text	measured property	result
KSCCPCYWGGCPWGQNCYPEGCSGPK [Av3b, reference compound]	degradation detected via HPLC and LC/MS	degradation was detected
KSCCPCYWGGCPWGQNCYPEGCDGPK (ends and bridges not checked; cysteine pairing not given here) [Av3bM24]	degradation detected via HPLC and LC/MS	degradation was detected

----------
Please provide measured CD Melting temperature for the entries that follow.
- protocol details: Circular dichroism assay, melting temperature
- Assay type: physicochemical
- experimental setup: 10 mM Na3PO4 solution, pH 5.9; 20° C. to 98° C.
- Description: A JASCO J-1500 CD spectrometer (JASCO, 28600 Mary's Court, Easton, MD 21601 USA) was used to measure the CD spectrum and the secondary structure information of the Av3bM24, Av3bM165, Av3bM103, and Av3bM170 peptides (with Av3b as a comparator). The peptides were prepared in 10 mM Na3PO4 solution, pH 5.9, and loaded into the cuvette for CD spectrum measurement. […]
Ends that are not written are not given here.
Quick note: give the figure in °C, leave out the unit.

What value of CD Melting temperature has been reported for the following sequence? KSCCPCYWGGCPWGQNCYPEGCGGPG [Av3bM170] 70

What value of CD Melting temperature has been reported for the following sequence? KSCCPCYWGGCPWGQNCYPEGCSGPG (ends and bridges not checked; cysteine pairing not given here) [Av3bM103] 82

What value of CD Melting temperature has been reported for the following sequence? KSCCPCYWGGCPWGQNCYPEGCDGPK (ends and bridges not checked; cysteine pairing not given here) [Av3bM24] 80

What value of CD Melting temperature has been reported for the following sequence? KSCCPCYWGGCPWGQNCYPEGCSGPK [Av3b, reference compound] 69.3

What value of CD Melting temperature has been reported for the following sequence? KSCCPCYWGGCPWGQNCYPEGCSGPKVG [Av3bM165] 80

----------
- protocol details: Thermo-stability at 54° C. in pH 4.0 solution
- Format: physicochemical
- experimental setup: pH 4.0, 54° C.; HPLC peak area; + mass increase, − mass loss
- Protocol: A thermo-stability study was performed for Av3b, Av3bM24, Av3bM165, Av3bM103, and Av3bM170 in a pH 4.0 solution at 54° C. for 0, 3, 7, 10, 12, and 14 days, with a caffeine internal control to cancel variation from evaporation. […] At 0, 3, 7, 10, 12, and 14 days, 20 μL of each sample was analyzed via analytic rpHPLC system to evaluate peptide loss. Each sample contained a fixed amount caffeine, which was used to compensate the peptide HPLC UV absorbance peak change due to volume change by evaporation. […]
Ends that are not written are not given here.
measured property: peptide change on day 14 (%)
Quick note: give the figure in %, leave out the unit.

What value of peptide change on day 14 has been reported for the following sequence? KSCCPCYWGGCPWGQNCYPEGCDGPK (ends and bridges not checked; cysteine pairing not given here) [Av3bM24] −29.5

What value of peptide change on day 14 has been reported for the following sequence? KSCCPCYWGGCPWGQNCYPEGCSGPG (ends and bridges not checked; cysteine pairing not given here) [Av3bM103] −64.1

----------
Please provide measured peptide change on day 14 for the entries that follow.
- protocol details: Thermo-stability at 54° C. in pH 4.0 solution
- Type: physicochemical
- experimental setup: pH 4.0, 54° C.; HPLC peak area; + mass increase, − mass loss

What value of peptide change on day 14 has been reported for the following sequence? KSCCPCYWGGCPWGQNCYPEGCSGPK [Av3b, reference compound] +8.3%

What value of peptide change on day 14 has been reported for the following sequence? KSCCPCYWGGCPWGQNCYPEGCSGPKVG [Av3bM165] +4.2%

What value of peptide change on day 14 has been reported for the following sequence? KSCCPCYWGGCPWGQNCYPEGCGGPG [Av3bM170] +4.6%
